Target: dsRBD3/4 R234A R236A (Homo sapiens, UniProt O95793-2 102-274, R234A;R236A)
Sequence (O95793 183-355 R315A/R317A): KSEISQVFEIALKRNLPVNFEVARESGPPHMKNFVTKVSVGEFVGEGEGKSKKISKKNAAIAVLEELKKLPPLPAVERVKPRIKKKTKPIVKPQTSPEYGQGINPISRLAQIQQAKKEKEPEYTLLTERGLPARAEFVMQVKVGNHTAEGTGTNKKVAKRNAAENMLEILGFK
Test: fluorescence anisotropy
reported-endpoint: Kd (µM)
One number for each entry, in µM.

Please supply the value of reported Kd for the item GGCAGAAGCUGCCUCUUCGGAGGCAGUUUCUGCC (structured_RNA) [top 2/3 ARF1 SBS (sARF1 SBS)] 0.026
